- System tested: Sodium-dependent dopamine transporter (Homo sapiens, UniProt Q01959); note: assay procedure not described here
- Sequence (Q01959 whole entry): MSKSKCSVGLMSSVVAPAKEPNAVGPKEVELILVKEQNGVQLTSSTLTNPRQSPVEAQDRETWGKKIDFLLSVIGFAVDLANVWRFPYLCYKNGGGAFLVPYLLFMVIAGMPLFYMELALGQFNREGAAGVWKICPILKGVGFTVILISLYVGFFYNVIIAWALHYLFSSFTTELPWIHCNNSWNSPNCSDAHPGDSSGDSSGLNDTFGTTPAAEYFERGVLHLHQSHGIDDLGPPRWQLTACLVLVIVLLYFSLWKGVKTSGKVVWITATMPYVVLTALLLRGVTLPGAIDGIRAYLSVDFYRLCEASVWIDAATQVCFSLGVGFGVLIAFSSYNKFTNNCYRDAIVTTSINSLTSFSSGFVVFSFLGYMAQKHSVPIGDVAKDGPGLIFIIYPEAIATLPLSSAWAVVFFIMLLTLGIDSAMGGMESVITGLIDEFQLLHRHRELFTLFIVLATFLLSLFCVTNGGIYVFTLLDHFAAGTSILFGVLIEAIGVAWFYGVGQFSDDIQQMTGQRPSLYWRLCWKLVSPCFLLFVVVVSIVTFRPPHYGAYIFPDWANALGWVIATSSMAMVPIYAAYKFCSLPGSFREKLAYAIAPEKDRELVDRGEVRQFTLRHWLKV
Metric name: AC50

| Compound | Metric name | Assay result |
| --- | --- | --- |
| CCCCCCOC(=O)NC(=N)c1ccc(NCc2nc3cc(C(=O)N(CCC(=O)OCC)c4ccccn4)ccc3n2C)cc1 [DABIGATRAN ETEXILATE] | AC50 | 17 µM |
| CCC(=O)[C@@]1(C)[C@H](C)C[C@H]2[C@@H]3CCC4=CC(=O)C=C[C@]4(C)[C@H]3[C@@H](O)C[C@@]21C [RIMEXOLONE] | AC50 | > 10 µM |
| CCCCOC(=O)C(=O)Nc1cccc(-c2nnn[nH]2)c1 | AC50 | > 30 µM |
| CCOC(=O)O[C@]1(C(=O)COC(=O)CC)CC[C@H]2[C@@H]3CCC4=CC(=O)C=C[C@]4(C)[C@H]3[C@@H](O)C[C@@]21C [PREDNICARBATE] | AC50 | > 10 µM |
| CO[C@@H]1[C@@H](OC(N)=O)[C@@H](O)[C@H](Oc2ccc3c(O)c(NC(=O)c4ccc(O)c(CC=C(C)C)c4)c(=O)oc3c2C)OC1(C)C | AC50 | > 30 µM |
| CCC1(c2ccccc2)C(=O)NCNC1=O | AC50 | > 10 µM |
| CCOC(=O)C1=C(C)NC(C)=C(C(=O)OC)C1c1cccc(Cl)c1Cl (stereo unspecified) | AC50 | 13.3 µM |
| OCCOCCN1CCN(C(c2ccccc2)c2ccc(Cl)cc2)CC1 (stereo unspecified) [HYDROXYZINE] | AC50 | > 10 µM |
| CCOc1ccccc1OCCN[C@H](C)Cc1ccc(OC)c(S(N)(=O)=O)c1 | AC50 | > 30 µM |
| C[C@]12CCC(=O)C=C1C=C[C@@H]1[C@@H]2CC[C@@]2(C)[C@H]1CC[C@@]21CCC(=O)O1 | AC50 | > 30 µM |
| C[C@@H](Cc1ccccc1)N(C)Cc1ccccc1 | AC50 | 9.9 µM |
| CCCCC[C@H](O)CC[C@@H]1[C@H]2Cc3cccc(OCC(=O)O)c3C[C@H]2C[C@H]1O | AC50 | > 30 µM |
| OCC(O)COc1ccc(Cl)cc1 (stereo unspecified) | AC50 | > 10 µM |
| CC(C)(CO)c1cc2cc(NC(=O)C3(c4ccc5c(c4)OC(F)(F)O5)CC3)c(F)cc2n1C[C@@H](O)CO | AC50 | > 30 µM |
| CO/N=C(\C(=O)N[C@@H]1C(=O)N2C(C(=O)O)=C(CSc3nc(C)c(CC(=O)O)s3)CS[C@H]12)c1csc(N)n1 | AC50 | > 30 µM |
| Cc1cn(-c2cc(NC(=O)c3ccc(C)c(Nc4nccc(-c5cnccn5)n4)c3)cc(C(F)(F)F)c2)cn1 | AC50 | > 30 µM |

###

Listed here are molecules together with their documented AC50.
- System tested: Histamine H2 receptor (Homo sapiens); note: assay procedure not described here
- Sequence (P25021 whole entry): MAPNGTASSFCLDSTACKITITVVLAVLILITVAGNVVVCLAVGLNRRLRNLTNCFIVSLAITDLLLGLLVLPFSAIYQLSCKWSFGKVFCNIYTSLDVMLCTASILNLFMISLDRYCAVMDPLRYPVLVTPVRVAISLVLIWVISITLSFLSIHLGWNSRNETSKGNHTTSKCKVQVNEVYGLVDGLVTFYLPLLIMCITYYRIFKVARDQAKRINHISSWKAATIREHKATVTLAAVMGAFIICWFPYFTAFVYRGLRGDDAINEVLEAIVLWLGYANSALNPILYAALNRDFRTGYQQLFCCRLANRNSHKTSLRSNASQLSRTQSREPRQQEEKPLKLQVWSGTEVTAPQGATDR
- Format: functional, cell-based
Metric name: AC50

| Query smiles | Metric name | Assay result |
| --- | --- | --- |
| COc1cccc2c1C(=O)c1c(O)c3c(c(O)c1C2=O)C[C@@](O)(C(=O)CO)C[C@@H]3O[C@H]1C[C@H](N)[C@H](O)[C@H](C)O1 | AC50 | > 10 µM |
| CC[N+](CC)(CCNC(=O)C(=O)NCC[N+](CC)(CC)Cc1ccccc1Cl)Cc1ccccc1Cl | AC50 | > 30 µM |
| COC(=O)[C@H]1[C@H]2C[C@@H]3c4[nH]c5ccccc5c4CCN3C[C@H]2C[C@@H](OC(=O)c2cc(OC)c(OC)c(OC)c2)[C@@H]1OC | AC50 | > 10 µM |
